# System Name: IL-23 (human, p19/p40 heterodimer) (Homo sapiens, UniProt Q9NPF7;P29460 SEQ:20-189,SEQ:23-328)
# Sequence (Q9NPF7 20-189, chain 1 of 2): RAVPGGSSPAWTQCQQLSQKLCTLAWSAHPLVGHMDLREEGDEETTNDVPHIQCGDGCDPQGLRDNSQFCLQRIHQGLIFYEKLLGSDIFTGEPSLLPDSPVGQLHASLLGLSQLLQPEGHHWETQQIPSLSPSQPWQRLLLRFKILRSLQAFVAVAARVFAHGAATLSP
# Sequence (P29460 23-328, chain 2 of 2): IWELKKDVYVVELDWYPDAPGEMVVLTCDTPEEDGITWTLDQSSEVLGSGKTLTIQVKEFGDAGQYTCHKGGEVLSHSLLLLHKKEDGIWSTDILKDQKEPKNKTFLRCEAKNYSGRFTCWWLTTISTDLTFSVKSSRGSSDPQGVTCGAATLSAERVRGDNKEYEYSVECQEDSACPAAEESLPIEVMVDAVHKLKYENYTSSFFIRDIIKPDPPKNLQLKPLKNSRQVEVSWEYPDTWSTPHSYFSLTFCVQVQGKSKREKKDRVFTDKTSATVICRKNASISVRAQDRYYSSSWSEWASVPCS
# Assay Overview: filter; -tRNA; competition 8 nM
# Condition Notes: tags: R&D Systems, carrier free
Property Name: Kd (nM)
Return type: number; implicit unit nM.

Input line: State the recorded Kd for this entry: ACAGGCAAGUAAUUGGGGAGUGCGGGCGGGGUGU (mixed, deoxy A,G; 2'-OMe C,U; PS 21-22 [PS between 21-22; 2'-OMe C,U at 2,6,10,13,14,21,23,27,32,34; deoxy A,G at all other positions]) [ARC1163]
Output line: 49
